- tested-system: hNav1.5 sodium channels (Homo sapiens, UniProt Q14524)
- Construct: expressed in transfected cells; host or cells: CHO cells
- Sequence (Q14524 whole entry): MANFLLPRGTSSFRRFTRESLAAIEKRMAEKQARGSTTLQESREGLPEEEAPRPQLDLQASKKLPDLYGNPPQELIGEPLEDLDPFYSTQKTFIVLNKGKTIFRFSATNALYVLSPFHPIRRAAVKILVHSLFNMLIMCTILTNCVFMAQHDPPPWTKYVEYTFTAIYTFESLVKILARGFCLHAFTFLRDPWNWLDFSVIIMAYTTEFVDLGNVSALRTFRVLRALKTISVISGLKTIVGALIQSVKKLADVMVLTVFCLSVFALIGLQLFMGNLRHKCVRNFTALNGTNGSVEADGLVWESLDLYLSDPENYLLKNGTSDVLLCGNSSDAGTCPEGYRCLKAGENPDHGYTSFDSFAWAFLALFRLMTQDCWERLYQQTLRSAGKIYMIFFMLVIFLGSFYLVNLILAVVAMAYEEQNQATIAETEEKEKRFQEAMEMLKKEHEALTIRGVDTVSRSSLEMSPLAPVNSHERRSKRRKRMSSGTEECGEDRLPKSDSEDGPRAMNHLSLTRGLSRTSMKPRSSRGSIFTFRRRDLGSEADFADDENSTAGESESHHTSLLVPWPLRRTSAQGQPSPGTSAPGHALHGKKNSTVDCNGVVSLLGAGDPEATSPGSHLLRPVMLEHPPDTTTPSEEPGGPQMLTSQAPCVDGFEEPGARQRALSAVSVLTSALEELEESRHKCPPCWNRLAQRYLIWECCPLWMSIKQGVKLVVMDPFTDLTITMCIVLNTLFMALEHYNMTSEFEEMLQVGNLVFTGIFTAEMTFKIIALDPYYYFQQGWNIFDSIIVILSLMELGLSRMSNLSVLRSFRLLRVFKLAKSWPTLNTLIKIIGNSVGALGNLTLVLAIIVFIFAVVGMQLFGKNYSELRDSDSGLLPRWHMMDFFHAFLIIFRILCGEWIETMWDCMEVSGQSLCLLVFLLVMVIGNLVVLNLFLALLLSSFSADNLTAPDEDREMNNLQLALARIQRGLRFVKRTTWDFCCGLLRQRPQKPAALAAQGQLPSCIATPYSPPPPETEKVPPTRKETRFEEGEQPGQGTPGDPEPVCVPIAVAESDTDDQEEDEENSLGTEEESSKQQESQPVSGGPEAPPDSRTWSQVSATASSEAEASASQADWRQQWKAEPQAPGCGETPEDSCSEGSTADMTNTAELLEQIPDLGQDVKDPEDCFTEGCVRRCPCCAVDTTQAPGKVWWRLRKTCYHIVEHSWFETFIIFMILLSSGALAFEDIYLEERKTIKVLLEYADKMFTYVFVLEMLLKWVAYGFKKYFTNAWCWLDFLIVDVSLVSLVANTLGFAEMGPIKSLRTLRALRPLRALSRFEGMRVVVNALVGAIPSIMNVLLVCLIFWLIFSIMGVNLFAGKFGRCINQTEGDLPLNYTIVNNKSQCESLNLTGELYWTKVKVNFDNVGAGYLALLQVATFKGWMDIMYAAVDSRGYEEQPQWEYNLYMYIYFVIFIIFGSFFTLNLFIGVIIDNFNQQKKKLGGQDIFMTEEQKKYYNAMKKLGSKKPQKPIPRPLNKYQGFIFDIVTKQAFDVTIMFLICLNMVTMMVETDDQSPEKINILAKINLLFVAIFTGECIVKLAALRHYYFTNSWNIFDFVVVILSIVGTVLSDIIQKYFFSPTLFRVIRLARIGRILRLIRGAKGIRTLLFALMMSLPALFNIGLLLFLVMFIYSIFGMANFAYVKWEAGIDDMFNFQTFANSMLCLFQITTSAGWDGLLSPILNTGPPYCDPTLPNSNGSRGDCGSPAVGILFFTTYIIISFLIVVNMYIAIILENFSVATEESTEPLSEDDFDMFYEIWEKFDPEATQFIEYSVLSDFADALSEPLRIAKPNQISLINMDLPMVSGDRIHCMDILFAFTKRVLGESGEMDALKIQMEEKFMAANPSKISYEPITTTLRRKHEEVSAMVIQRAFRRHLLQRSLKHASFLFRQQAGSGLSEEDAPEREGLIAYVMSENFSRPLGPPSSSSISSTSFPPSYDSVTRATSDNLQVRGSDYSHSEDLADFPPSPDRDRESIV
- test: hNav1.5 sodium channel automated patch clamp
- Assay type: cell-based
- measurement-context: tonic block, CHO cells, read-out: Nav1.5 tonic ion channel inhibition
Overview of reported inhibition at 10 µM across a group of compounds:
Use % as the unit, but write only the number.

Recorded inhibition at 10 µM (compound CCCCc1oc2ccccc2c1C(=O)c1cc(I)c(OCCN(CC)CC)c(C(F)(F)F)c1 [Compound 2] ): 23

***
Recorded inhibition at 10 µM (compound CCCCc1oc2ccccc2c1C(=O)c1cc(C(F)(F)F)c(OCCN(CC)CC)c(C(F)(F)F)c1 [Compound 1] ): 11.5

Recorded inhibition at 10 µM (compound CCCCc1oc2ccccc2c1C(=O)c1ccc(OCCN(CC)CC)c(C(F)(F)F)c1 [Compound 3] ): 48

Recorded inhibition at 10 µM (compound CCCCc1oc2ccccc2c1C(=O)c1cc(I)c(OCCN(CC)CC)c(I)c1 [Amiodarone, reference compound] ): 6.8

The values you see were collected from patent US9895340B2.
